test system: NEK2; details: concentration: 1 μM, replicates: in singlicate; n = 1;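 further: KINOMEscan kinase panel screen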
Observable: %Inh (%)
# output: bare number, implied unit %

Recorded %Inh (compound COC(=O)Nc1nc2cc(Oc3ccc(NC(=O)Nc4cc(F)ccc4F)cc3)ccc2[nH]1.Cl [GW701424] ): 0

Recorded %Inh (compound Fc1ccc(-c2ncn(CCCN3CCOCC3)c2-c2ccccn2)cc1 [SB-211742] ): 7

Recorded %Inh (compound O=C(c1ccc(-c2cc(-c3c[nH]nc3-c3ccccn3)ccn2)cc1)N1CCOCC1 [GW812171] ): 0

Recorded %Inh (compound Cn1ccc2ncnc(Oc3ccc(NC(=O)Nc4ccncc4)c(Cl)c3)c21 ): 0

Recorded %Inh (compound c1ccc(-c2cc(-c3c[nH]nc3-c3ccccn3)ccn2)cc1 [GW576604] ): 0

Recorded %Inh (compound COc1cc(Nc2nccc(N3CCC(NC(=O)c4cccc(NC(C)=O)c4)C3)n2)cc(OC)c1OC (stereo not drawn) [GSK1379754] ): 7

Recorded %Inh (compound Cc1ccc(C(=O)NCC(N)=O)cc1-n1c(C)cc(OCc2ccc(F)cc2F)c(Br)c1=O ): 10

Recorded %Inh (compound O=C1NC(=O)C(N2CCc3ccccc32)=C1c1cccc(Cl)c1 [SB-408010] ): 12

Recorded %Inh (compound CCn1cnc2c(N)ncnc21 [GW345098] ): 13

Recorded %Inh (compound Cc1cn2c(=O)cc(N3CCOCC3)nc2n1Cc1cccc(Cl)c1Cl [GSK2334006] ): 14

Recorded %Inh (compound CCc1ccnc(/C=C/c2n[nH]c3cc(Sc4ccccc4C(=O)NC)ccc23)c1 ): 0

Recorded %Inh (compound N#Cc1ccc(-c2cc(-c3c[nH]nc3-c3ccccn3)ccn2)cc1 [GW693028] ): 0

Recorded %Inh (compound O=C(NCCNc1ccnc(Nc2ccc(F)cc2)n1)Nc1ccccc1F [GSK1379880] ): 0

Recorded %Inh (compound O=C(Nc1n[nH]c2cc(-c3cccc(F)c3)ccc12)C1CC1 [SB-735464] ): 0

Recorded %Inh (compound COc1ccc(CNC(=O)NC2CCN(c3ccnc(Nc4ccc(OC)cc4)n3)C2)cc1 (stereo not drawn) [GSK1379727] ): 0

Recorded %Inh (compound Cc1cccc(Cn2ccn3c(=O)cc(N4CCOCC4)nc23)c1 [GSK2297542] ): 15

Recorded %Inh (compound Cl.Nc1ncnc2occ(-c3ccc(NC(=O)Nc4cc(C(F)(F)F)ccc4F)cc3)c12 [SB-707548] ): 37

Recorded %Inh (compound COc1ccc(Nc2nccc(N3CCC(NC(=O)Nc4cc(C)ccc4C)C3)n2)cc1 (stereo not drawn) [GSK1379741] ): 0

Recorded %Inh (compound Cc1c(Cn2c(C)nn3c(=O)cc(N4CCOC(C)C4)nc23)cccc1C(F)(F)F (stereo not drawn) [GSK2344444] ): 3

Recorded %Inh (compound CN1c2ccc(NCc3ccc(F)cc3)cc2-c2c(cnn2C)S1(=O)=O ): 0

Recorded %Inh (compound Cc1nnc(-c2ccc3occ(-c4ccc(C(C)O)cc4)c3c2)o1 (stereo not drawn) ): 0

Recorded %Inh (compound Cc1cccc(-c2nc(Nc3ccc4ncsc4c3)c3ccccc3n2)n1 [GW867588] ): 0

Recorded %Inh (compound COc1cc2ncn(-c3cc(OCc4sccc4Cl)c(C(N)=O)s3)c2cc1OC [GSK448459] ): 97.1

Recorded %Inh (compound Nc1nc(-c2ccc3c(N)n[nH]c3c2)cc(N2CCCC2)n1 [GSK2227430] ): 0

Recorded %Inh (compound CCc1nc(-c2cccc(C)c2)c(-c2ccnc(NCc3ccccc3)c2)s1 ): 0

Recorded %Inh (compound Cc1cccc(-c2nc(-c3ccc(S(C)(=O)=O)cc3)sc2-c2ccncc2)c1 ): 0

Recorded %Inh (compound CC(C)(C)n1cnc2c(N)ncnc21 [SKF-97359] ): 0

Recorded %Inh (compound COc1ccc(COc2cc(-n3cnc4ccccc43)sc2C(N)=O)cc1 [GSK1024304] ): 0

Recorded %Inh (compound NCCNS(=O)(=O)c1ccc(-c2ccnc3[nH]ccc23)cc1 [GSK977617] ): 0

Recorded %Inh (compound CSc1ccc(-c2cc3ncnc(SCC(=O)O)c3s2)cc1 ): 0

====

test system: WNK1; details: concentration: 1 μM, replicates: in singlicate; n = 1
Kindly supply the reported %Inh values for the records listed here.
# output: bare number, implied unit %

Param item: CCc1ccnc(/C=C/c2n[nH]c3cc(Sc4ccccc4C(=O)NC)ccc23)c1 ; param system: WNK1; output %Inh: 0

Param item: COCCNC(=O)c1ccc(-c2cc(C(=O)NC3CC3)cc(F)c2C)cc1 [GW868318] ; param system: WNK1; output %Inh: 31

Param item: NS(=O)(=O)c1cccc(-c2ccc3nccc(-c4cccc(S(N)(=O)=O)c4)c3c2)c1 [GW867253] ; param system: WNK1; output %Inh: 7

Param item: Cc1ccc(NC(=O)c2ccnc(N3CCN(C)CC3)c2)cc1-c1ccc(C(=O)NCC2CC2)cc1 [GW775604] ; param system: WNK1; output %Inh: 0

Param item: NS(=O)(=O)CCc1cccc(Nc2nccc(-c3c(-c4cccc(NC(=O)c5c(F)cccc5F)c4)nn4ccccc34)n2)c1 [GSK336735] ; param system: WNK1; output %Inh: 0

Param item: COc1ccc(Nc2nccc(N3CCC(NC(=O)Nc4cc(C)ccc4C)C3)n2)cc1 (stereo not shown) [GSK1379741] ; param system: WNK1; output %Inh: 7

Param item: CCn1cnc2c(N)ncnc21 [GW345098] ; param system: WNK1; output %Inh: 0

Param item: COc1ccc(COc2cc(-n3cnc4ccccc43)sc2C(N)=O)cc1 [GSK1024304] ; param system: WNK1; output %Inh: 0

Param item: Cc1nnc(-c2ccc3ncc(-c4ccc(S(C)=O)cc4)n3c2)o1 (stereo not shown) ; param system: WNK1; output %Inh: 0

Param item: O=C(Nc1cccc(-c2nn3ncccc3c2-c2ccnc(Nc3cccc(C(F)(F)F)c3)n2)c1)c1c(F)cccc1F [GSK299495] ; param system: WNK1; output %Inh: 15

====

Kindly supply the reported %Inh values for the records listed here.
tested on: TLK2; settings: concentration: 1 μM, replicates: in singlicate; n = 1
# output: bare number, implied unit %

Recorded %Inh (molecule Cl.Oc1cccc(Nc2ccnc3cc(-c4ccncc4)ccc23)c1 ): 9

Recorded %Inh (molecule COc1ccc(COc2cc(-n3cnc4ccccc43)sc2C(N)=O)cc1 ): 0

Recorded %Inh (molecule CC(=O)Nc1ccc(COc2ccc(Nc3ccnc4cc(-c5ccccn5)ccc34)cc2)cc1.Cl ): 25

Recorded %Inh (molecule Cn1ccc2ncnc(Oc3ccc(NC(=O)Nc4ccncc4)c(Cl)c3)c21 ): 0

Recorded %Inh (molecule NS(=O)(=O)CCc1cccc(Nc2nccc(-c3c(-c4cccc(NC(=O)c5c(F)cccc5F)c4)nn4ccccc34)n2)c1 ): 2

====

system: PIM3; conditions: concentration: 1 μM, replicates: in singlicate; n = 1
Kindly supply the reported %Inh values for the records listed here.
# output: bare number, implied unit %

Recorded %Inh (compound CC(C)(C)n1cnc2c(N)ncnc21 [SKF-97359] ): 0

Recorded %Inh (compound O=c1cc(N2CCOCC2)nc2n(Cc3cccc(Cl)c3Cl)c(C3CC3)nn12 [GSK2358994] ): 0

Recorded %Inh (compound O=C(Nc1n[nH]c2cc(-c3cccc(F)c3)ccc12)C1CC1 [SB-735464] ): 4

Recorded %Inh (compound Cc1cn2c(=O)cc(N3CCOCC3)nc2n1Cc1cccc(Cl)c1Cl [GSK2334006] ): 0

Recorded %Inh (compound [2H]C([2H])(c1cccc(C(F)(F)F)c1C)n1ccn2c(=O)nc(N3CCOCC3)cc12 [GSK2336394] ): 0

Recorded %Inh (compound COc1ccc(CNC(=O)NC2CCN(c3ccnc(Nc4ccc(OC)cc4)n3)C2)cc1 (stereo not drawn) [GSK1379727] ): 0

Recorded %Inh (compound Nc1nc(-c2ccc3c(N)n[nH]c3c2)cc(N2CCCC2)n1 [GSK2227430] ): 0

Recorded %Inh (compound Cc1cccc(-c2nc(Nc3ccc4ncsc4c3)c3ccccc3n2)n1 [GW867588] ): 16

Recorded %Inh (compound c1ccc(-c2n[nH]cc2-c2ccnc3ccccc23)nc1 [GW271431] ): 3

Recorded %Inh (compound CN1c2ccc(NCc3ccc(F)cc3)cc2-c2c(cnn2C)S1(=O)=O ): 0

Recorded %Inh (compound CN(C1=C(c2ccccc2)C(=O)NC1=O)c1ccccc1 [SB-334860] ): 0

Recorded %Inh (compound Cl.Oc1cccc(Nc2ccnc3cc(-c4ccncc4)ccc23)c1 [GW494601] ): 0

Recorded %Inh (compound Cc1nnc(-c2ccc(C)c(-c3ccc(C(=O)Nc4ccc(NS(C)(=O)=O)cc4)cc3)c2)o1 [GW702865] ): 0

Recorded %Inh (compound O=C(NCCCN1CCOCC1)c1cccc(Nc2nccc(Nc3ccc(Oc4ccccc4)cc3)n2)c1 [GW663929] ): 4

Recorded %Inh (compound COc1ccc(S(=O)(=O)NC2CCN(c3cc(C)nc(Nc4cccc(C#N)c4)n3)CC2)cc1.O=C(O)C(F)(F)F [GSK1653539] ): 0

Recorded %Inh (compound COc1cc2ncn(-c3cc(OCc4sccc4Cl)c(C(N)=O)s3)c2cc1OC [GSK448459] ): 0

Recorded %Inh (compound NS(=O)(=O)c1cccc(-c2ccc3nccc(-c4cccc(S(N)(=O)=O)c4)c3c2)c1 [GW867253] ): 9

Recorded %Inh (compound Nc1nccc(-c2c(-c3ccc(F)cc3)ncn2C2CCN(CC(F)(F)F)CC2)n1 [SB-236560] ): 0
